# ASSAY TARGET: Human FAP (Acro), recombinant protein (human, UniProt Q12884 26-760)
# Sequence (Q12884 26-760 limits assumed): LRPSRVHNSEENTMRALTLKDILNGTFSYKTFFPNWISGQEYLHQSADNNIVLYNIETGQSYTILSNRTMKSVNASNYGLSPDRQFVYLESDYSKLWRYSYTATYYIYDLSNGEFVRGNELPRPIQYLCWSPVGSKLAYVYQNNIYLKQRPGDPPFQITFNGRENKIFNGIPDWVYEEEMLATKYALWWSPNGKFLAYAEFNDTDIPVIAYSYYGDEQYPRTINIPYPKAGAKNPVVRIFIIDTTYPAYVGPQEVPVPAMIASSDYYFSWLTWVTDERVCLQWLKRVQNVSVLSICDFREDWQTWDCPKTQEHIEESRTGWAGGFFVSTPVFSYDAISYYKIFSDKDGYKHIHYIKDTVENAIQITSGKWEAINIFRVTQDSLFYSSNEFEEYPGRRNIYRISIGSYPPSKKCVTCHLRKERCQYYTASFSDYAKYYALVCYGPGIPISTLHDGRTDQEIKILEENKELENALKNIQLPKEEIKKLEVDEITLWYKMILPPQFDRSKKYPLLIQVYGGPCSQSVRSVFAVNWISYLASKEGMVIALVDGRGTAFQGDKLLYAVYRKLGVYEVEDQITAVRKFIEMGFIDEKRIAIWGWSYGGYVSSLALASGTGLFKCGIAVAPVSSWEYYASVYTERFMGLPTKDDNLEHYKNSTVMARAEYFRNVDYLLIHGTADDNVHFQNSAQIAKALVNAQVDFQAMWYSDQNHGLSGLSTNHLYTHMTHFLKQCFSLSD
# MEASUREMENT PROTOCOL: SPR (Carterra LSA), antibody captured by anti-human Fc, FAP as analyte
Below is a list of entries, each paired with its recorded Kd value.
Report the value in nM with no unit label.

Worked cases, answers included:
>  <BINDER>
Clone 3.4 (antibody, V domains shown, anti-FAP mAb (bivalent)) VH: EVQLVESGGGLVKPGGSLRLSCVASGFTFSLAWMNWVRQAPGKGLEWVGHIKSRADGGSTDYAAPVKGRFTISRDDSKNTLYLHMNSLKTEDTAVYFCSRFYWNYVLDYWGQGTLVTVSS VL: DIQMTQSPSSLSASVGDRVTITCRASQSINSYFNWYQQKPGKAPKLLIYAASGLQSGVPSRFSGSGSGTDFTLTISSLQPEDFATYYCQQSYSPPYTFGQGTNLEIK

>  <UNITS SYMBOL>
nM

>  <Kd>
0.033

$$$$
>  <BINDER>
Clone 3.3 (antibody, V domains shown, anti-FAP mAb (bivalent)) VH: QVQLVQSGTEVKKPGASVKVSCKASGYTFTGYYMNWVRQAPGQGLEWVGWINPNSGDTNFAQKFQGRVTMTRDSSISTAYMELSRLRSDDTAVYYCARQFRGYSYGYGMDVWGKGTTVTVSS VL: DIQMTQSPSSLSASVGDRVTITCRASQNIGSYLNWYQQKPGKAPKLLIYAASSLQSGVPSRFSGSGSGTDFTLTISSLQPEDFATYYCQQANSFPFTFGPGTKVDIK

>  <UNITS SYMBOL>
nM

>  <Kd>
0.023

$$$$

Req: Give me measured Kd, please, for this binder: Clone 3.1 (antibody, V domains shown, anti-FAP mAb (bivalent)) VH: QLQLQESGPGLVKPSETLSLTCTVSGGSISSSTYYWGWIRQPPGKGLEWIGSIFYSGNTYYNPSLKSRVTISVDTSKNQFSLRLNSVTAADTAVYYCAREIIEPRPGYFDYWGQGTLVTVSS VL: DIQMTQSPSSLSASVGDRVTITCRASQSISKYLNWYQQKPGKAPKFLIYAASSLQSGVPSRFSGSGSGTDFTLTISSLQPEDFATYYCQQSNSIPRTFGQGTKVEIK
Resp: 0.04

Req: Give me measured Kd, please, for this binder: Clone 3.2 (antibody, V domains shown, anti-FAP mAb (bivalent)) VH: QVQLVQSGAEVKKPGASVKVSCKASGYTFTGYYMHWVRQAPGQGLEWMGWIYPNTGGTNYAQNFQGRVTMTRDTSISTAYMELSSLRSDDTAVYYCARDDYNKNLDYWGQGTLVTVSS VL: DIQMTQSPSTLSASVGDRGTITCRASQSIGSWLAWYQQKPGKTPKLLIYKASSLESGVPSRFSGSGSGTEFTLTISSLQPDDFATYYCQQYNSYFRTFGQGTKVEIK
Resp: 0.047
